test system: Platelet-derived growth factor receptor alpha (Homo sapiens), P16234 [T674I]; conditions: at 1 µM
Sequence (P16234 whole entry T674I): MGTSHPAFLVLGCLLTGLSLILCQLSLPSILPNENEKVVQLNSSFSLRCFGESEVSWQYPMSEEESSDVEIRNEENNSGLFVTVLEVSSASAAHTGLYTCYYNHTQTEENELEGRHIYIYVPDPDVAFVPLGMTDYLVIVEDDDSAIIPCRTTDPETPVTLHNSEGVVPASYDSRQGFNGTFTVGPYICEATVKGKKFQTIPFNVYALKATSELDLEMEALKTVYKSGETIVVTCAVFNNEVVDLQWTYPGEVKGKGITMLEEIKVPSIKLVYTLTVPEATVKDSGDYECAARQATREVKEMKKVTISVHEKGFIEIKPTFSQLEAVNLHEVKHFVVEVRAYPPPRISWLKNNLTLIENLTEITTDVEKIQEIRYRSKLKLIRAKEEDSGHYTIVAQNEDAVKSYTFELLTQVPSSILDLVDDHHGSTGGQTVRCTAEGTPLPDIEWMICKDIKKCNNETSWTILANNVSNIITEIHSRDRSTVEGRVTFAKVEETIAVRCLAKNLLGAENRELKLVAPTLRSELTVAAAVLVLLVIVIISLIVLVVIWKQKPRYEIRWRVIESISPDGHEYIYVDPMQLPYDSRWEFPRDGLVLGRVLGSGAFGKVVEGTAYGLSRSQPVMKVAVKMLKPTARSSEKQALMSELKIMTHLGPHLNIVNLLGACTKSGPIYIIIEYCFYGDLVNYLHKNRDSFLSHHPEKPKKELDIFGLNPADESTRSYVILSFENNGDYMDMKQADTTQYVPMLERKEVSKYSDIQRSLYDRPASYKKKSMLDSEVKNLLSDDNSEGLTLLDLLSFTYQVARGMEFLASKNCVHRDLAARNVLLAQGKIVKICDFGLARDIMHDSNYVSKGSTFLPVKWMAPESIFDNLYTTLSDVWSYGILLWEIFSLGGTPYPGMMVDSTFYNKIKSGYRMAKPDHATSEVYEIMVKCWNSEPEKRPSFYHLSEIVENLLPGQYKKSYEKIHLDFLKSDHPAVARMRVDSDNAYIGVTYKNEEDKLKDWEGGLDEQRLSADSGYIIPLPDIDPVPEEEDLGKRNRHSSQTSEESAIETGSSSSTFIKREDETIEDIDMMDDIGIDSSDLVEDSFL
Assign Y to entries whose inhibition meets or exceeds 20%; assign N to the rest.

Solved cases below.
>>> class_assignment("NS(=O)(=O)c1ccc(N/N=C2\\C(=O)Nc3ccc(C(=O)NCc4ccncc4)cc32)cc1")
"N"
>>> class_assignment("Cn1c(-c2nonc2N)nc2cnccc21")
"N"
>>> class_assignment("COc1cccc(-n2ncc3c(N/N=C/c4ccc(C(=O)NCCN(C)C)cc4)ncnc32)c1")
"Y"
>>> class_assignment("Cc1cc(O)cc(C)c1/C=C/c1cncc(C(=O)OC(C)(C)C)c1")
"N"
>>> class_assignment("COc1c(C(N)=O)cc(-c2ccc(Cl)cc2)cc1-c1ccc(S(N)(=O)=O)cc1")
"N"
>>> class_assignment("O=C(O[C@H]1CN[C@H](C#Cc2cc3ncnc(Nc4ccc5c(ccn5Cc5cc(F)ccc5F)c4)c3s2)C1)N1CCOCC1")
"N"
>>> class_assignment("COc1cccc(Nc2nccc(-c3cnn4ncccc34)n2)c1")
"Y"
>>> class_assignment("CN(c1ccc(NC(=O)NCCN2CCOCC2)cc1)c1ccnc(Nc2ccc(CS(C)(=O)=O)cc2)n1")
"Y"
>>> class_assignment("COc1cc(N2CCN(C(C)C)CC2)ccc1Nc1nc(Nc2cccc3ncccc23)c2cc[nH]c2n1")
"N"
>>> class_assignment("NC(=O)c1ccc2c(-c3ccnc(NCCCO)n3)c(-c3ccc(F)cc3)nn2c1")
"N"

In: Please tell me: is the compound Cc1ccc(-c2cc3c(NC(=O)C4CC4)ncnc3o2)cc1 at or over 20% in terms of inhibition?
Out: Y

In: Please tell me: is the compound COc1ccc(Nc2ncc(-c3ccccc3)o2)cc1OC at or over 20% in terms of inhibition?
Out: Y

Provenance of the data: ChEMBL document CHEMBL1961873
